# Study system: AdipoR1 (Homo sapiens)
# Sequence (Q96A54 whole entry): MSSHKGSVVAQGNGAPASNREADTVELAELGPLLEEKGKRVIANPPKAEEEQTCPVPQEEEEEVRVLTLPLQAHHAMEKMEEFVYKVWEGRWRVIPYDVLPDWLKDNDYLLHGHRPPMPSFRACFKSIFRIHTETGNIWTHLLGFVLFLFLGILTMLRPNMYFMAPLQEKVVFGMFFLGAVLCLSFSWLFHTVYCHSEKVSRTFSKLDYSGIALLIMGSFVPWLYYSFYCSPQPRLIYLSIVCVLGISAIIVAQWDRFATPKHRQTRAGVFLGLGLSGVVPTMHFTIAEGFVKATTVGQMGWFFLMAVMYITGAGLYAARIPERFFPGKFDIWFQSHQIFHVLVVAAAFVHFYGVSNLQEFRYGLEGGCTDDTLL
# Assay: Measurement of AMPK phosphorylation ability (Assay 1), HEK 293T cells, Western blotting
# Type: cell-based
# Design: HEK 293T cells (ATCC; CRL-3216, medium; host or cells: HEK 293T
# Experimental parameters: 50 μM, 10 minutes
Hi, to clarify the labels: 1 covers pAMPK/AMPK (%) from 70% upward, -1 covers anything below 70%.

Here are 3 molecules together with their reported answers.
Molecule	Study system	Label
O=C(NCCC(=O)N1CCN(Cc2cccc(O)c2)CC1)c1ccc(Cl)cc1	AdipoR1 (Homo sapiens)	-1
COc1cc(C(C)=O)ccc1OCC(=O)NC1CCN(C(C)c2ccccc2)CC1 (stereo not shown)	AdipoR1 (Homo sapiens)	-1
COc1ccc(CN2CCC(NC(=O)COc3ccc(C(F)(F)F)cc3)CC2)cc1F	AdipoR1 (Homo sapiens)	1

# input Please check the record CC(c1ccccc1)N1CCC(NC(=O)COc2ccc(-c3ccccc3)cc2)CC1 (stereo not shown) and state if its pAMPK/AMPK (%) is at or above 70%.
# output 1

# input Please check the record O=C(NCCC(=O)N1CCN(Cc2cccc(O)c2)CC1)c1ccc(Br)cc1 and state if its pAMPK/AMPK (%) is at or above 70%.
# output -1

# input Please check the record COc1ccc(CN2CCN(C(=O)CCNC(=O)c3ccc(Cl)cc3)CC2)c(OC)c1OC and state if its pAMPK/AMPK (%) is at or above 70%.
# output 1

# input Please check the record O=C(COc1ccc(F)cc1)NC1CCN(Cc2ccc(Cl)c(Cl)c2)CC1 and state if its pAMPK/AMPK (%) is at or above 70%.
# output 1

# input Please check the record CC(C)c1ccc(OCC(=O)NC2CCN(C(C)c3ccccc3)CC2)cc1 (stereo not shown) and state if its pAMPK/AMPK (%) is at or above 70%.
# output 1

# input Please check the record COc1ccc(OCC(=O)NC2CCN(Cc3ccc(Cl)c(Cl)c3)CC2)cc1 and state if its pAMPK/AMPK (%) is at or above 70%.
# output 1

# input Please check the record COc1ccccc1CN1CCN(C(=O)CCNC(=O)c2ccc3ccccc3c2)CC1 and state if its pAMPK/AMPK (%) is at or above 70%.
# output -1
